# measured target: Glycogen synthase kinase-3 alpha (Homo sapiens) (UniProt P49840)
# Sequence (P49840 whole entry, looked up): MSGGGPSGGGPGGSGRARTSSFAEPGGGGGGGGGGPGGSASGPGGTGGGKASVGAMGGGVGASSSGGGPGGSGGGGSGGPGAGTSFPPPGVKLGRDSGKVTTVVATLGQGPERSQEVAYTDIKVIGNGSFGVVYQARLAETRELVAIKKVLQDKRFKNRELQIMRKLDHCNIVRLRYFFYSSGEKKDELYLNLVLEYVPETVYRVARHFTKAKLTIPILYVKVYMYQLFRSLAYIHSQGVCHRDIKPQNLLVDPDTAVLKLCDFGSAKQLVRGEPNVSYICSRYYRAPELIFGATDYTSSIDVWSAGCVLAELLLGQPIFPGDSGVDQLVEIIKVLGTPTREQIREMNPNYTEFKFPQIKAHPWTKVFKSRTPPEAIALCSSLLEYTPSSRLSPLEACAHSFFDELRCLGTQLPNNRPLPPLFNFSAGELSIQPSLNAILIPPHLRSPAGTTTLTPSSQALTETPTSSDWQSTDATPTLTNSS
# test method notes: concentration-response blocking of human GSK3A – biochemical, luminescence, cell-free homogeneous, retest, dose response (AID 463203)
# recorded conditions: GSK-3 alpha enzyme, ADP-Glo luminescence, 60 min
Active and inactive are the calls of the source.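 The calls were made as follows: active = more than half of replicate measurements showing over 20% loss of kinase signal relative to plate controls; inconclusive = some but at most half of replicates over 20% loss; inactive = no replicate over 20% signal loss.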
Labels: t (active), f (inactive)

compound	class
CC(C)(C)OC(=O)N1CCC(NC(=O)c2[nH]cnc2C(=O)Nc2ccon2)CC1	t
COc1ccc(Nc2nc(-c3cc4cccc(OC)c4oc3=O)cs2)cc1	f
Nc1nonc1-n1nnc(C(=O)N/N=C/c2ccco2)c1CSc1ccccc1	f
CCC(=O)N1CCN(c2cc(NCC3CCCO3)c(F)cc2[N+](=O)[O-])CC1 (stereo unspecified)	t
COCCCNc1nc2nonc2nc1N1C[C@H]2CC[C@H]1C2	f
Fc1ccc(Nc2ccnc(Nc3ccc(F)cc3)n2)cc1	f
COc1ccc(N=Cc2c(O)[nH]c3ccccc23)cc1OC	t
CC1(C)CC(=O)C(C2c3ccccc3Oc3ccccc32)C(=O)C1	f
COc1ccc(S(=O)(=O)NC(C)C(=O)O)cc1 (stereo unspecified)	f
CN1/C(=C\C=C2C(=O)NC(=O)NC2=O)C(C)(C)c2ccccc21	t
CCn1nc(-c2ccccc2)nc2c(=O)n(C)c(=O)nc1-2	t

----------
# measured target: Glycogen synthase kinase-3 alpha (Homo sapiens)
# test method notes: concentration-response blocking of human GSK3A – biochemical, luminescence, cell-free homogeneous, retest, dose response (AID 463203)
# recorded conditions: GSK-3 alpha enzyme, ADP-Glo luminescence, 60 min
Activity calls are given as the source filed them.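 How the source made its calls: active means more than half of replicate measurements showing over 20% loss of kinase signal relative to plate controls; inconclusive means some but at most half of replicates over 20% loss; inactive means no replicate over 20% signal loss.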
Labels: active, inactive

compound	measured target	class
CCOC(=O)c1cc(CC)sc1NC(=O)C1CC1	Glycogen synthase kinase-3 alpha (Homo sapiens)	inactive
COc1ccc(-c2cc(=O)c3c(O)cc(O)cc3o2)cc1	Glycogen synthase kinase-3 alpha (Homo sapiens)	active
CCOC(=O)c1nc(NCc2ccccc2C)c2ccccc2n1	Glycogen synthase kinase-3 alpha (Homo sapiens)	inactive
COc1cc2ncc(S(=O)(=O)c3ccccc3)c(N3CCCC(C)C3)c2cc1OC (stereo not drawn)	Glycogen synthase kinase-3 alpha (Homo sapiens)	inactive
CCOC(=O)c1[nH]c2c(c1-c1ccccc1)C(=O)CC(c1ccc(Cl)cc1)C2 (stereo not drawn)	Glycogen synthase kinase-3 alpha (Homo sapiens)	inactive
Cc1cccc(C(=O)Nc2cccc(C(=O)N/N=C/c3ccccn3)c2)c1	Glycogen synthase kinase-3 alpha (Homo sapiens)	active
COc1cccc(/C=C2\Oc3cc(OCC(=O)N4CCC[C@H]4C(=O)O)ccc3C2=O)c1	Glycogen synthase kinase-3 alpha (Homo sapiens)	inactive
CC(=O)c1cnc(Nc2ccccc2)s1	Glycogen synthase kinase-3 alpha (Homo sapiens)	active
CC(=O)Nc1cccc(-c2cnc(N)c(C(=O)c3cccnc3)n2)c1	Glycogen synthase kinase-3 alpha (Homo sapiens)	active
CCCCSc1nc(C)[nH]c1[N+](=O)[O-]	Glycogen synthase kinase-3 alpha (Homo sapiens)	inactive
Cc1cc(OC(=O)c2c(C)cc(O)cc2O)cc(O)c1C(=O)O	Glycogen synthase kinase-3 alpha (Homo sapiens)	active
CCN(CC)CCCNc1nc(N)c([N+](=O)[O-])c(N2CCCCCC2)n1	Glycogen synthase kinase-3 alpha (Homo sapiens)	active
CCSc1nc2c(c(=O)[nH]1)C(c1ccc(C)cc1)C1=C(CCCC1=O)N2 (stereo not drawn)	Glycogen synthase kinase-3 alpha (Homo sapiens)	inactive
CN1CCc2nc3sc(C#N)c(N)c3c(-c3cccs3)c2C1	Glycogen synthase kinase-3 alpha (Homo sapiens)	active
CCn1c(SCC(=O)Nc2ccc(C)cc2)nnc1-c1ccc(O)cc1	Glycogen synthase kinase-3 alpha (Homo sapiens)	inactive
O=C(Nc1cccc(C(=O)NC2CCCCC2)c1)c1ccccc1	Glycogen synthase kinase-3 alpha (Homo sapiens)	inactive
C=CC(=O)Nc1sc2c(c1C(N)=O)CCCC2	Glycogen synthase kinase-3 alpha (Homo sapiens)	active
CC1CCC[C@H](O)CCCCCc2cc(O)cc(O)c2C(=O)O1 (stereo partly drawn)	Glycogen synthase kinase-3 alpha (Homo sapiens)	inactive
O=[N+]([O-])c1ccc(N/N=C/c2ccc(OCc3cccc4ccccc34)cc2)nc1	Glycogen synthase kinase-3 alpha (Homo sapiens)	inactive
Nc1ncc(-c2ccccc2)c(-c2ccc(OCc3ccccc3)cc2O)n1	Glycogen synthase kinase-3 alpha (Homo sapiens)	inactive
Nc1nc(NCc2ccccc2)nc(NCc2ccccc2)c1[N+](=O)[O-]	Glycogen synthase kinase-3 alpha (Homo sapiens)	inactive
COc1cccc(C(=O)NCC(=O)OCC(=O)c2ccccc2)c1	Glycogen synthase kinase-3 alpha (Homo sapiens)	inactive
COc1cccc(NC(=O)c2nnn(Cc3ccc(Br)cc3F)c2N)c1	Glycogen synthase kinase-3 alpha (Homo sapiens)	active
